Each record here notes measured Inhibition.
- System: Plasmodium falciparum
- assay.text: GSK_TCMDC: Inhibition of Plasmodium falciparum 3D7 in whole red blood cells, using parasite LDH activity as an index of growth. Test compounds present at 2uM
- Assay type: functional
// note: answer is a bare numeric in %

[
  {
    "entry.smiles": "c1ccc(Oc2ccc(Nc3ccnc4cc(-c5ccc(CN6CCCCC6)o5)ccc34)cc2)nc1",
    "Inhibition (%)": 100
  },
  {
    "entry.smiles": "COc1ccc2nccc([C@@H](O)CN3CCC(NCc4ccc(OC)c(NC=O)c4)CC3)c2c1",
    "Inhibition (%)": 97
  },
  {
    "entry.smiles": "CN(C)CCOc1cc(NC(=O)Nc2cccc([N+](=O)[O-])c2)ccc1I",
    "Inhibition (%)": 100
  },
  {
    "entry.smiles": "CC(C)n1c(C2CCN(CC3CCN(C(=O)/C=C/c4ccc(Cl)c(Cl)c4)CC3)CC2)nc2ccccc21",
    "Inhibition (%)": 94
  }
]

In the following, a different compound is considered.
Query: Let me know recorded Inhibition for CN(C)CCN(C)Cc1ccc(-c2ccc(NC(=O)c3cccc(Cl)c3)cc2)cc1.O=C(O)C(F)(F)F , thanks.
Reply: 94
